Just for reference, paper PMC7822874 is where these values come from.

tested on: HepG2; conditions: human, hepg2 cells, 48 h
ENDPOINT: Log AC50 (M)

1. O[C@H]1[C@H](NCC2CCCCC2)[C@H]2CO[C@H](O2)[C@@H]1N1CCC(Cc2ccccc2)CC1	-4.3028 M
2. O=C(Nc1ccc([C@H]2OCC(=O)N(Cc3ccncc3)[C@@H]2CO)cc1)c1ccc(C(F)(F)F)cc1	-4.5643 M
3. NS(=O)(=O)c1ccc(N/N=C/c2cn(-c3ccccc3)nc2-c2cccs2)cc1	-4.6643 M
4. COc1cccc(-c2noc(CCCc3nc(-c4cccnn4)no3)n2)c1	-4.5143 M
5. Cc1c2ccncc2c(C)c2c1[nH]c1ccccc12	-4.3643 M
6. O=C(Nc1ccccc1)OC[C@H]1C[C@@H]2CCN1C[C@@H]2c1cc(C2CCCC2)nc(-c2ccncc2)n1	-4.4643 M
7. O=C1NCN(c2ccccc2)C12CCN(CCCC(c1ccc(F)cc1)c1ccc(F)cc1)CC2	-4.3643 M
8. O=C(N/N=C/c1ccccn1)c1ccccc1	-4.3643 M

* * *

assay: in vitro; details: human, hepg2-a16-cd81egfp cells, % viability
Param label: returns 1 when viability at 3 µM < 90%, returns -1 otherwise, including exact equality.

1) Cc1ccc(O)c(-c2cc(C(=O)Nc3ccc(S(=O)(=O)N4CC(C)OC(C)C4)cc3)n[nH]2)c1 (stereo not shown) [MLS000042695]	1
2) N#Cc1c2c(c(NCc3ccco3)n3c1nc1ccccc13)CCC2 [MLS000109113]	-1
3) COc1ccccc1Nc1cnc2ccc(-c3ccc(OC)c(OC)c3)nn12 [NCGC00412573]	1
4) COc1ccc2[nH]c(C)c(CCN(Cc3cccs3)C(S)=Nc3ccccc3)c2c1 [MLS000529828]	1
5) O=S1(=O)N(CCN2CC=C(c3c[nH]c4cc(F)ccc34)CC2)c2cccc3c2N1CCC3 [NCGC00015600]	1
6) CCN(CC)c1ccc(NC(=O)COc2ccccc2C#N)cc1S(=O)(=O)Nc1ccccc1OC [MLS000339599]	-1
7) Cc1cc(O)c(-c2cc(C(=O)Nc3ccc(S(=O)(=O)N4CCOCC4)cc3)[nH]n2)cc1C [MLS000042703]	-1
8) N#Cc1cc(C#N)c(N2CCN(c3cccc(Cl)n3)CC2)nc1N [MLS000325470]	-1
9) Cc1ccc(C)c2sc(N3CCN(C(=O)c4ccc([N+](=O)[O-])o4)CC3)nc12 [MLS001234268]	-1

* * *

system: Plasmodium falciparum Dd2 asexual blood stage parasites; assay: microbe, parasite or virus in culture; design: species or system Plasmodium falciparum Dd2 in human erythrocytes; single determination (one 11-point concentration-response curve); conditions: Plasmodium falciparum, DD2, Erythrocyte, 72 h; read-out: AC50
Measured AC50 accompanies every entry in the list below.
ENDPOINT: AC50

1. COc1ccccc1NS(=O)(=O)c1cc(NC(=O)c2cccc(S(=O)(=O)N(C)C)c2)ccc1N1CCOCC1	7.5 µM
2. O=C(Nc1nc(-c2ccccn2)cs1)c1cccc(S(=O)(=O)N2CCOCC2)c1	5.96 µM
3. O=C(Nc1ccc([N+](=O)[O-])cc1)Nc1ccc(OC(F)F)c(Cl)c1	2.66 µM
4. COc1ccc2cc1Nc1ccc(cc1)C[C@H](NCc1ccc3c(c1)CCO3)C(=O)N(C)[C@H](C(=O)NCCC(C)C)C2	3.35 µM
5. CCC(CC)c1cc([C@H]2CN3CC[C@H]2C[C@@H]3CNC(=O)NCc2ccccc2)nc(-c2ccncc2)n1	4.22 µM
6. O=C(Nc1ccc(Cl)cc1)N1CCC2(CC1)CCN(Cc1cccs1)c1ccccc1O2	8.41 µM
7. O=C(NC(c1ccccc1)c1cc(Cl)c2cccnc2c1O)c1cccnc1 (stereo not shown)	7.5 µM
